Test system: Imidazoline I2 (Central) Receptor
method-summary: Imidazoline I2 (central) receptor radioligand binding ([3H] Idazoxan)
Set-up: species or system Wistar rat
condition-info: 10 μM solution
Percentage Inhibition of Specific Binding, I2 Receptor for assorted molecules
Report as a plain number; the unit % is understood.

{"molecule": "COc1cc2c(cc1OC)[C@H]1C[C@H](O)[C@@H](CC(C)C)CN1CC2 (single isomer, unassigned) [Isomer B]", "measured-target": "Imidazoline I2 (Central) Receptor", "experimental-result": 8}
{"molecule": "COc1cc2c(cc1OC)C1CC(O)C(CC(C)C)CN1CC2 (single isomer, unassigned) [Isomer C]", "measured-target": "Imidazoline I2 (Central) Receptor", "experimental-result": 0}
{"molecule": "COc1cc2c(cc1OC)[C@H]1C[C@@H](O)[C@H](CC(C)C)CN1CC2 (single isomer, unassigned; isomer d) [Isomer D]", "measured-target": "Imidazoline I2 (Central) Receptor", "experimental-result": 55}

Now look at this entry.
Q) Report Percentage Inhibition of Specific Binding, I2 Receptor for COc1cc2c(cc1OC)[C@@H]1C[C@@H](O)[C@H](CC(C)C)CN1CC2 (single isomer, unassigned) [Isomer A] tested on Imidazoline I2 (Central) Receptor.
A) 74

Where do the numbers come from? From patent US20110257220A1.
